Where these numbers come from: ChEMBL document CHEMBL1133176

Biological target: GABA-A receptor; anion channel
Experiment: Displacement of [3H]- Ro.15-1788 from GABA-A central Benzodiazepine receptor (BzR) of Bovine cerebral cortex membrane
Format: tissue-based, Bos taurus

structure smiles	output unit	Ki
Oc1c(-c2ccco2)nnc2nc3ccccc3n12	nM	56
COc1ccc(-c2nnc3nc4ccccc4n3c2O)cc1	nM	44
Cn1c2ccccc2n2c(=O)c(-c3ccccc3)nnc12	nM	860
Cc1ccc(-c2nnc3nc4ccccc4n3c2O)s1	nM	115

* * *

Target: GABA-A receptor; anion channel (Bos taurus) (UniProt P10063+P08220+P20237+P08219+P10064+P22300)
Assay: Relative binding to GABA-A receptor in the presence and absence of GABA (GABA shift), Ki(-GABA)/Ki(+GABA)
Type: protein-complex assay
assay endpoint: GABA ratio

structure smiles	assay endpoint	recorded value
Oc1ccc(-c2nnc3nc4ccccc4n3c2O)cc1	GABA ratio	0.87
Cc1ccc(-c2nnc3nc4ccccc4n3c2O)s1	GABA ratio	0.96
COc1ccc(-c2nnc3nc4ccccc4n3c2O)cc1	GABA ratio	1.25
Oc1c(-c2ccco2)nnc2nc3ccccc3n12	GABA ratio	0.98
